test system: NCI-H226 lung; assay: NCI-60 one-dose screen, 48 h (100 = growth as untreated, 0 = no growth, -100 = all killed); settings: 10 µM
Compounds without any hit were thinned out: in the full panel of roughly 83,000, 20% have a hit.
Measure name: growth (%)
Please reply with the bare figure in % and do not write the unit itself.

CC12CCC3(CCC(=O)NCCCNc4ccnc5cc(Cl)ccc45)[C@@](C)(OO[C@]3(C)O1)O2 ... 0.706
COP(=O)(CC(F)(F)C(F)(F)F)OC ... -55.6
Cc1c2oc3c(C)ccc(C(=O)N[C@@H]4C(=O)N[C@H](C(C)C)C(=O)N5CCC[C@H]5C(=O)N(C)CC(=O)N(C)[C@@H](C(C)C)C(=O)OC4C)c3nc-2c(C(=O)N[C@@H]2C(=O)N[C@H](C(C)C)C(=O)N3CC(=O)C[C@H]3C(=O)N(C)CC(=O)N(C)[C@@H](C(C)C)C(=O)OC2C)c(N)c1=O (some centres not stated) ... -4.29
O=C(/C=C/c1ccc(Cl)cc1Cl)c1nc2ccccc2n1Cc1ccc(Br)cc1 ... 55.7
CCOP(=O)(OCC)C(NC(C)=O)C(=O)SCCN (configuration not stated) ... 106

query: Given the compound "CC(=O)Oc1ccccc1C(=O)[Se]C(=NC(C)C)NC(C)C" , what is its reported growth?
result: -67.2

---

system: HL-60(TB) leukemia; experiment: NCI-60 one-dose screen, 48 h; settings: 10 µM unless noted
About 83,000 compounds went through this panel and 20% of them were active in at least one assay; those are over-represented in the sample as a whole. Activity calls are given as the source filed them. How the source made its calls: active means growth percent below 10; inactive means the rest.
Give your call using only these classes: active, inactive

COc1ccc(N=Nc2c(N)nn3c(-c4cc5cc(Br)ccc5oc4=O)ccnc23)cc1 ... inactive

query: Which outcome was entered for the molecule "COc1ccc(-c2ccc(SCC(=O)Nc3ccc(S(N)(=O)=O)cc3Br)nn2)cc1" in this test?
result: inactive

query: Entry "O=C(CN1CCN(c2ncnc3c2cnn3-c2ccccc2)CC1)Nc1ccc(Cl)cc1" please
result: inactive

query: Entry "CC(=O)Nc1cccc(Nc2nc(NCc3ccccc3)c3ccccc3n2)c1" please
result: active

query: Entry "CN(C)CCCNC(=S)Nc1ccc(/C=C/c2ccc(Cl)cc2)cc1" please
result: active

query: Entry CCOc1ccccc1[C@H]1C(C(=O)c2ccc(Cl)cc2)C2(N[C@@H]1c1ccccc1)C(=O)Nc1ccc(Cl)cc12 (some centres undefined) please
result: inactive

query: Entry "COc1cc(OC)c(S(=O)(=O)N(CCCl)CCCl)cc1C(=O)/C=C/c1cc(OC)c(OC)c(OC)c1" please
result: active

query: Entry "COC(=O)c1cccc(Oc2ccc(NC(=O)Nc3cc(C(F)(F)F)ccc3F)cc2)c1" please
result: inactive

query: Entry "Cc1ccc(Cl)cc1NC(=O)Nc1nc2ccc([N+](=O)[O-])cc2s1" please
result: active

---

System: MDA-MB-468 breast
Assay: NCI-60 one-dose screen, 48 h (100 = growth as untreated, 0 = no growth, -100 = all killed)
Details: 10 µM unless noted
Protocol: Growth inhibition of the MDA-MB-468 human Breast tumor cell line is measured as a screen for anti-cancer activity. Cells are grown in 96 well plates and exposed to the test compound for 48 hours. Compounds are tested at a single concentration, which is 10^-5 M for most compounds. The reported endpoint is percent growth (GI% or GIPRCNT), where numbers from 0 - 100% represent growth inhibition, and numbers from -100% - 0 represent cell death. […]
The panel holds about 83,000 compounds, 20% with a hit somewhere; the sample as a whole holds those more often.
Here, each record is paired with measured growth data.
Please reply with the bare figure in % and do not write the unit itself.

Worked cases, growth given:
CCCCCCCCC(CO)NCCc1ccccc1 (stereo unspecified) ... 100
CCCC(=O)O[C@@H]1C[C@H]2C[C@@H](O[C@@H]3O[C@@H](C)[C@@H](O)[C@@H](O)[C@H]3OC)C[C@@H](C[C@@H](C)/C=C/C=C\C[C@@H]3O[C@@H](C[C@@H]3C)[C@@H](O)C[C@H]3C[C@@]1(O)C(=O)O3)O2 ... -6.3
C#CC[Se]C(=O)c1ccc2n[se]nc2c1 ... 25.9

query: Given the compound "CCOP(=O)(CC(F)(F)C(F)(F)F)OCC" , what is its reported growth?
result: -59.3

query: Entry "C[C@H]1[C@H](OC(=O)CCC(=O)Nc2cnccn2)O[C@@H]2OC3(C)CC[C@H]4[C@H](C)CC[C@@H]1[C@@]24OO3" please
result: 50.7

query: Entry CCC(=O)C(CC(C)[N+](C)(C)C)(c1ccccc1)c1ccccc1 (stereo unspecified) please
result: 85.5

---

Here, each record is paired with measured growth data.
system: MCF7 breast; experiment: NCI-60 one-dose screen, 48 h (100 = growth as untreated, 0 = no growth, -100 = all killed); settings: 10 µM
This is part of a sample that, as a whole, favours compounds with a hit. Of some 83,000 tested, about 20% had one in any assay.
Please reply with the bare figure in % and do not write the unit itself.

COCCOCCOCCOc1ccc(-n2cc(CCCN(CCNc3ccnc4cc(Cl)ccc34)C(=O)CCC(=O)O[C@@H]3O[C@@H]4OC5(C)CC[C@H]6[C@H](C)CC[C@@H]([C@H]3C)[C@@]46OO5)nn2)cc1 ... 22.2
CC(=O)Oc1ccccc1C(=O)[Se]C(=NC(C)C)NC(C)C ... -55
CN(C)CCc1cn(C2CCC2)c2cccc(O)c12 ... 22.4
COC(=O)C[C@](O)(CCCC(C)C)C(=O)O[C@H]1C(OC)=C[C@@]23CCCN2CCc2cc4c(cc2[C@@H]13)OCO4 ... -6.98
CC12OOC(C)(OO1)C2CCC(=O)OCCNc1ccnc2cc(Cl)ccc12 (stereo not drawn) ... 24.2

query: Given the molecule "COc1cc2cc(C(=O)N3C[C@@H](CCl)c4c3cc(OC(=O)N3CCN(C(=O)CCC(=O)N5CCN(C)CC5)[C@@H]5CSSC[C@@H]53)c3ccccc43)[nH]c2c(OC)c1OC" , what is its reported growth?
result: -92.4

query: Entry "O=C(/C=C/c1ccc(F)cc1)c1nc2ccccc2n1Cc1ccc(F)cc1" please
result: 7.32

query: Entry "COc1ccc(OC)c(/C=C/C(=O)c2nc3ccccc3n2Cc2ccc(F)cc2)c1" please
result: 2.95

---

test system: HOP-62 NSCLC; assay: NCI-60 one-dose screen, 48 h; settings: 10 µM
About 83,000 compounds went through this panel and 20% of them were active in at least one assay; those are over-represented in the sample as a whole. Activity calls are given as the source filed them. Rule for the calls: active = growth percent below 10; inactive = the rest.
Give your call using only these classes: active, inactive

Example entries and their recorded answers appear below.
C[C@H]1[C@H](OC(=O)CCC(=O)Nc2cnccn2)O[C@@H]2OC3(C)CC[C@H]4[C@H](C)CC[C@@H]1[C@@]24OO3 ... inactive
C=CC[Se]C(=O)c1cncc(C(=O)[Se]CC=C)c1 ... active
C[C@H]1[C@@H](CC(=O)N[C@@H](Cc2coc3ccccc23)B(O)O)O[C@@H]2OC3(C)CC[C@H]4[C@H](C)CC[C@@H]1[C@@]24OO3 ... active

query: Which outcome was entered for the compound "C=CCN=C([Se])NC(=O)c1ccc2c(c1)OCO2" in this test?
result: inactive

---

Here, each record is paired with measured growth data.
tested on: MDA-MB-468 breast; assay: NCI-60 one-dose screen, 48 h (100 = growth as untreated, 0 = no growth, -100 = all killed); conditions: 10 µM unless noted
The panel holds about 83,000 compounds, 20% with a hit somewhere; the sample as a whole holds those more often. Calls of active or inactive are those of the source. How the source made its calls: active means growth percent below 10; inactive means the rest.

Worked cases, growth given:
COc1ccc2c(c1)c(C1(O)CC(CSC#N)OC1=O)cn2C(=O)c1ccc(Cl)cc1 (stereo not drawn) ... 109% (inactive)
CNC(=O)Oc1cc(C(C)C)ccc1Sc1ccc(C(C)C)cc1OC(=O)NC ... 56.5% (inactive)
O=C1CN=C(c2ccc(Cl)cc2)c2sccc2N1 ... 104% (inactive)
COc1cc2cc(C(=O)N3C[C@@H](CCl)c4c3cc(OC(=O)N3CCN(C(=O)CCC(=O)N5CCN(C)CC5)[C@@H]5CSSC[C@@H]53)c3ccccc43)[nH]c2c(OC)c1OC ... -91.5% (active)
COc1cc(/C=C/[N+](=O)[O-])cc(Br)c1OC ... -34.7% (active)
CC(=O)O[C@H]1C(=O)[C@@]2(C)[C@H]([C@H](OC(=O)c3ccccc3)[C@]3(O)C[C@H](OC(=O)[C@H](OC(=O)OC[C@H]4COC(C)(C)O4)[C@@H](NC(=O)c4ccccc4)c4ccccc4)C(C)=C1C3(C)C)[C@]1(OC(C)=O)CO[C@@H]1C[C@@H]2O ... -16.3% (active)
O=c1cc[nH]c(=O)o1 ... 105% (inactive)

query: Given the molecule "CC(=O)Oc1ccccc1C(=O)[Se]C(=NC(C)C)NC(C)C" , what is its reported growth?
result: -64.4% (active)

# credit: PubChem BioAssay (NCI)
